# tested on: human mAChR M1 (Homo sapiens)
# Sequence (P11229 whole entry): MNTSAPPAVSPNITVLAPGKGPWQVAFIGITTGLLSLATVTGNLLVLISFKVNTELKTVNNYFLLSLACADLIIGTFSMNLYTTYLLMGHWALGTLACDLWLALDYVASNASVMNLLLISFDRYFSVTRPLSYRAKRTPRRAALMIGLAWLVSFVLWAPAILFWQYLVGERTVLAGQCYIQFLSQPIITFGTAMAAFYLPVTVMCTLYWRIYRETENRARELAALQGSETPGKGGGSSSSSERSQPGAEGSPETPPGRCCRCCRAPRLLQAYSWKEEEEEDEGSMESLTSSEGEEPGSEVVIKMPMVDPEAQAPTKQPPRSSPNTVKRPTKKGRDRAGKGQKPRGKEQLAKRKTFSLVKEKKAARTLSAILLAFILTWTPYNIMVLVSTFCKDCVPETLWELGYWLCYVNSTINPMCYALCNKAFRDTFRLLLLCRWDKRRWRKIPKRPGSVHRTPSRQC
# experiment description: mAChR M1 cell-based functional assay: calcium mobilization, positive allosteric modulator mode (increase in EC20 acetylcholine response)
# test conditions: Table 2; human M1; read-out: Human M1 EC50
metric: EC50 (nM)
Provide the reading as a plain figure in nM.

[[record]]
molecule = "Cn1ncc2nc(C(=O)N[C@H]3CCCC[C@@H]3O)cc(Cc3ccc(-n4cccn4)cc3)c21"
metric = "EC50"
endpoint_value = 428

[[record]]
molecule = "Cn1cc(-c2ccc(Cc3cc(C(=O)NC[C@H]4CCCO4)nc4ccsc34)cn2)cn1"
metric = "EC50"
endpoint_value = 131

[[record]]
molecule = "COCC(C)NC(=O)c1cc(Cc2ccc(-c3cncs3)cc2)c2sccc2n1 (centres unmarked)"
metric = "EC50"
endpoint_value = 5050

[[record]]
molecule = "O=C(NC1CN(CC(F)(F)F)C1)c1cc(Cc2ccc(-n3cccn3)cc2)c2sccc2n1"
metric = "EC50"
endpoint_value = 3420

[[record]]
molecule = "Cn1cc(-c2cc(F)c(Cc3cc(C(=O)N[C@H]4COCC[C@@H]4O)nc4ccsc34)c(F)c2)cn1"
metric = "EC50"
endpoint_value = 5600


Field request: EC50 | item: O=C(N[C@@H]1COCC[C@H]1O)c1cc(Cc2ccc(-n3cccn3)cc2)c2sccc2n1
22.1

Field request: EC50 | item: Cn1ccc(-c2ccc(Cc3cc(C(=O)NC4CC(F)(F)C4)nc4ccsc34)cn2)n1
400
